Test system: EKVX NSCLC
Assay: NCI tumour cell line growth inhibition, 48 h
Kindly supply the reported TGI values for the records listed here.
Answer with a number only, understood to be in µM.

Given item C=C(C)C(=O)OC1C[C@H](COC(C)=O)C2CC=C(C)C2C2OC(=O)C(=C)[C@H]12 (stereo not given in full) , the value recorded as its TGI is 23.4

// Cc1ccc2nc3ccccc3c(NCc3ccccc3)c2c1 : TGI value = 12.9

----------
Test system: OVCAR-5 ovarian
Experiment: NCI tumour cell line growth inhibition, 48 h
Please respond with reported TGI for every item in the list.

Looking up Cc1cc(=O)[nH]c(NN2C(Cl)C(=O)C2c2ccc(O)cc2)n1 (stereo unspecified) , I see its TGI listed as 35.2 µM

Item: O=c1c2ccccc2sc2nc(CCl)nn12 | TGI: > 100 µM

Short answer for O=c1c2sc3ccccc3c2nnn1-c1ccc(F)c(Cl)c1 : TGI was > 100 µM

Form: compound = CC(C)(C)c1ccc2c(c1)S(=O)(=O)Nc1cccc(c1)NS(=O)(=O)c1cc(C(C)(C)C)ccc1OCCOCCO2 ; TGI = > 100 µM

Sample COc1cc(C2CC(C)(N3CCCC3)Oc3cc4c(cc32)OCO4)cc(OC)c1OC (stereo unspecified) ; TGI observed: > 100 µM

TGI measured on C=CCCCC(=O)CCC(=O)OCC1O[C@@H](O[C@@H]2C(O)[C@@H](OC(C)=O)C(C)O[C@H]2O[C@H](CC=C)CCCCC)C(O)[C@@H](OC(=O)/C(C)=C/C)[C@@H]1OC(=O)/C=C/c1ccccc1 (stereo partly specified) = > 50 µM

----------
Tested on: MALME-3M melanoma
Test: NCI tumour cell line growth inhibition, 48 h
OBSERVATION_TYPE: TGI

Please fill in: TGI reported for COc1ccc(OC)c(Nc2nc3ccccc3c3c2-c2ccc(OC)cc2C3=O)c1 = > 100 µM

The reported value for CC1(C)C(O)OC(O)C1(C)C (stereo not drawn) in terms of TGI is > 100 µM

In plain terms, Cn1cccc(C(=O)c2ccccc2)c1=O has a documented TGI of > 100 µM

The recorded TGI for entry O=C(O)c1cccc(CN2CCCCC2)c1 equals > 100 µM

Record CCOC(=O)C(=O)Nc1cccc(Cl)c1C . Reported TGI: > 100 µM

// recorded TGI for C=CCNC(=O)NNC(O)(C(=O)OCC)C(F)(F)F (stereo not drawn) : > 100 µM

Noted for O=C1CCC(=O)N1CNc1cccc(NCN2C(=O)CCC2=O)c1 : its TGI reads > 100 µM

Record CC(O)C1(CNc2cc(Cl)nc(N)n2)CCCC1 (stereo not drawn) , field TGI: > 100 µM

GET /value?item= Cc1ccc(N=Nc2c(O)c(S(=O)(=O)O)cc3cc(S(=O)(=O)O)ccc23)c(C)c1 &field=TGI returns > 100 µM

Item: CCOC(=O)[C@@]12C(C)=CC(=O)O[C@]1(C)C[C@H]2C#N | TGI: > 100 µM

Briefly, TGI measured for O=C1C=Cc2c(-c3ccccc3)oc3cccc1c23 : > 100 µM

According to the records, this compound CO/C(N)=C(\C#N)N=Cc1ccccc1 displays TGI of > 100 µM

Measured TGI of C[C@@H]1CCC2[C@@H](C)[C@@H](OC3CCC(O)CC3)OC3O[C@@]4(C)CCC1[C@]32OO4 (stereo partly drawn) : > 100 µM

----------
Test system: CAKI-1 renal
Assay: NCI tumour cell line growth inhibition, 48 h
OBSERVATION_TYPE: TGI (µM)
A number alone suffices; assume µM.

// COC(=O)c1ccc([C@H]2c3[nH]c4ccccc4c3C[C@H](C(=O)OC)N2C(=O)CCl)cc1 : TGI value = 2.51

Record Cc1cc(C)n(-c2nc3ccccc3c(=O)[nH]2)n1 , field TGI: 37.5

For reference, reported TGI for COc1ccc(C(=O)NCCNc2nccc(-c3c(-c4ccc(F)cc4)nc4sccn34)n2)cc1 stands at 24.5

Please fill in: TGI reported for CN(C)c1ccc(Cc2cc(C(C)(C)C)cc(C(C)(C)C)c2O)cc1 = 39.6

----------
Test system: COLO 205 colon
Test: NCI tumour cell line growth inhibition, 48 h
OBSERVATION_TYPE: TGI (µM)
Give a bare numeral; the unit µM is implied.

// sample O=[N+]([O-])c1ccc(/C(=C\c2ccccc2)Cn2ccnc2)cc1 , its TGI was 30

The molecule identified as CCCOc1cc2c(cc1O)CC[C@@H]1[C@@H]2CC[C@]2(C)[C@@H](O)CC[C@@H]12 registered its TGI at 30

The molecule listed as Cn1cc(-c2ccc(-c3cn(C)c4ncccc34)[nH]2)c2cccnc21 has a reported TGI of 3.84

get_value(item= CCN(CCCl)CCCCNc1c2ccccc2nc2ccc(OC)cc12 , readout=TGI) returns 3.63

get_value(item= O=P(Nc1ccccc1)(Oc1ccccc1)N1CCN(c2ccccc2)CC1 (centres undefined) , readout=TGI) returns 34.9

----------
Tested on: NCI-H226 lung
Assay: NCI tumour cell line growth inhibition, 48 h
OBSERVATION_TYPE: TGI

Value of measured TGI for the entry COC(=O)N1c2ccc3c(nc(Cc4ccccc4)n3[C@H]3CCC[C@H](C(=O)O)C3)c2CC[C@@H]1C : > 100 µM

The reported TGI of the molecule Cc1cc(=O)[nH]c(NN2C(Cl)C(=O)C2c2ccc(O)cc2)n1 (centres undefined) was 32.6 µM

Briefly, TGI measured for CCOC(=O)/C=C\[C@H]1OC(C)(C)O[C@H]1[C@H](O)[C@H]1COC(C)(C)O1 : > 100 µM

TGI reported for this molecule C=C1CC(c2ccc(O)c(OC)c2)Oc2c(OC)cccc21 (centres undefined) : > 100 µM

Memo: CCOC(=O)C1N(S(=O)(=O)c2ccc(C)cc2)CCC12C(c1ccc(OC)c(OC)c1)=Nc1ccccc12 (centres undefined) , reported TGI: > 100 µM

TGI for COC1OC(C)C(OC(=O)C(C)(C)C)C(OS(=O)(=O)c2ccc(C)cc2)C1OS(=O)(=O)c1ccc(C)cc1 (centres undefined) is > 100 µM

Form: molecule = COc1ccc2[nH]c(C(=O)N3CCN(C(=O)OCc4ccc5c(Br)cc(Br)c(O)c5n4)CC3)cc2c1 ; TGI = 1.05 µM

So, O=C(c1c(Cl)cc(Cl)cc1Cl)N(Cc1cccnc1)C(=S)N(Cc1cccnc1)C(=O)c1c(Cl)cc(Cl)cc1Cl ? Its TGI was 45.1 µM

Form: molecule = CCOC(=O)C(C(N)=O)c1nc2cc([N+](=O)[O-])ccc2nc1/C=C(\O)c1ccccc1 (centres undefined) ; TGI = > 100 µM

GET /value?item= CCCCCCCCCC1CC(=O)Oc2cccc(O)c21 (centres undefined) &field=TGI returns 99.5 µM

Record summary for Cc1ccc(S(=O)(=O)Oc2ccccc2-c2ccccc2)cc1 : reported TGI = > 100 µM

Noted for O=C(O)c1cccc(CN2CCCCC2)c1 : its TGI reads > 100 µM

Entry under test: COc1ccc(COC(=O)NNC(=O)C2CSC(c3ccccc3)N2C(C)=O)cc1 (centres undefined) . Its TGI was > 100 µM

For record Cc1cccc(N2C(=O)C3c4[nH]c5ccccc5c4C4CCC(C(C)(C)C)CC4C3C2=O)c1C (centres undefined) the listed TGI is > 100 µM

----------
Tested on: UO-31 renal
Experiment: NCI tumour cell line growth inhibition, 48 h
OBSERVATION_TYPE: GI50

I looked up Cc1ccncc1N1CCN(c2ccnc(Cl)c2)C1=O and its GI50 for UO-31 renal was > 100 µM

Item: N#Cc1c(-c2ccc(Cl)cc2)cc(-c2cc(O)ccc2O)nc1N | System: UO-31 renal | GI50: 5.12 µM

So the reported GI50 for COc1ccc(C(=O)/C=C/c2ccc(OCc3ccc(Cl)cc3)cc2)cc1OC , on UO-31 renal, turned out to be 190 µM

----------
System: U251 CNS
Your response should consist of one outcome taken from True = active, False = inactive

Prompt: Record lookup: outcome of this test for O=C(CC1(O)C(=O)N(Cc2ccccc2)c2ccc(Br)cc21)c1ccc(C(=O)NCC2CCC3(CC2)OOC2(CCCCC2)OO3)cc1 (configuration not stated) ?
Response: True

Prompt: What is the recorded call for this molecule in the test? COc1cc2c3c(n(CCCNCCCNCCCn4c5c(c6cc(OC)c(OC)cc6c4=O)C(=O)c4ccccc4-5)c(=O)c2cc1OC)-c1ccccc1C3=O
Response: False

Prompt: Field: outcome | Entry: O=C1N=C(c2c(-c3[nH]c(=O)c4ccc(Br)cc4c3O)c(O)c3ccccc3c2O)C(=O)c2cc(Br)ccc21
Response: True

Prompt: // outcome(item) with item = O=C(CCl)Nc1ccc2c(Nc3cc(O)ccc3Cl)ncnc2c1
Response: False

Prompt: For O=c1c2sc3ccccc3c2nnn1-c1ccc(F)c(Cl)c1 , what call appears in the results of this test?
Response: False

Prompt: # lookup: test call for COC(=O)c1ccc([C@H]2c3[nH]c4ccccc4c3C[C@H](C(=O)OC)N2C(=O)CCl)cc1
Response: False

Prompt: Kindly provide the recorded test outcome for the following molecule: CC12CC[C@@H]3c4cc5c(cc4CC[C@H]3[C@@H]1CCC2O)oc1cc(F)ccc15 (some centres not stated)
Response: False
